Readings of Selectivity for the listed proteins
Molecular target: pre-pro-human insulin

Name the reported Selectivity value associated with the protein trypsin variant SEQ ID NO: 20 (protein) IVGGYTCAANSIPYQVSLNSGSHRCGGSLINSQWVVSAAHCYKSRIQVRLGEHNIDVLEGNEQFINAAKIITHPNFNGNTLDNDIMLIKLSSPATLNSRVATVSLPRSCAAAGTECLISGWGNTESSGSSYPSLLQCLKAPVLSDSSCKSSYPGQITGNMICVGFLEGGKDACQGDSGGPVVCNGQLQGIVSSGYGCAQKNKPGVYTKVCNYVNWIQQTIAAN
>90%

Same for trypsin variant SEQ ID NO: 99 (protein) IVGGYTCAANSIPYQVSLNSGSHRCGGSLINSQWVVSAAHCYKSRIQVRLGEHNIHVLEGNEQFINAAKIITHPNFNPNTLDNDIMLIKLSSPATLNSNVATVSLPTSCAAAGTECLISGWGNTSSSGSSYPSLLQCLKAPVLSDSSCKSSYPGQITGNMICVGFLEGGADACQGDSGGPVVCNGQLQGIVSSGYGCAQKNKPGVYTKVCNYVNWIQQTIAAN
>80%

Now for the protein whose Selectivity we want.
Name the reported Selectivity value associated with the protein trypsin variant SEQ ID NO: 66 (protein) IVGGYTCAANSIPYQVSLNSGSHRCGGSLINSQWVVSAAHCYKSRIQVRLGEHNIDVLEGNEQFINAAKIITHPNFNGNTLDNDIMLIKLSSPATLNSRVATVSLPRSCAAAGTECLISGWGNTKSSGSSSPSLLQCLKAPVLSDSSCKSSYPGQITGNMICVGFLEGGKDACQGDSGGPVVCNGQLQGIVSSGYGCAQKNKPGVYTKVCNYVNWIQQTIAAN
>90%
